B1: Caulobacter ParB omega fusion; a variant is named by its letters at X, in order, B8GW30 (parent)
chain: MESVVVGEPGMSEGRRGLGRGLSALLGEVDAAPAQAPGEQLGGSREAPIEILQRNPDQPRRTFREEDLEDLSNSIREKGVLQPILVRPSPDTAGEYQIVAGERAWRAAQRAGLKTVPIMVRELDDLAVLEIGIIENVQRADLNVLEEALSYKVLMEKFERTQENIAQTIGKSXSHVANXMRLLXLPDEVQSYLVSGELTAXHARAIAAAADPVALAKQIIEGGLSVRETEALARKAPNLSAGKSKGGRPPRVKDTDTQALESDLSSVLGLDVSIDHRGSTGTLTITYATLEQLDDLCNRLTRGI

# Variants of: B1
# assay_explanation: one-hybrid fitness for binding NBS DNA (the Noc-binding site; scaled: cognate 1, non-cognate 0); higher = stronger binding
# condition_parameters: with NBS DNA site
In all, about 81,000 sequences were measured (“one-hybrid fitness for binding NBS DNA”: median about -0.1, highest 2% from about 0.36 on). For the sample, the highest values were picked, then their nearest neighbours and some sequences at random.
Exercise: for every item that follows, state its recorded one-hybrid fitness for binding NBS DNA.

Known one-hybrid fitness for binding NBS DNA results, listed for orientation:
{"mutation": "RKHF", "experimental_readout": "one-hybrid fitness for binding NBS DNA", "measurement": "≤ 0.2"}
{"mutation": "RKYN", "experimental_readout": "one-hybrid fitness for binding NBS DNA", "measurement": "≤ 0.2"}
{"mutation": "RYLR", "experimental_readout": "one-hybrid fitness for binding NBS DNA", "measurement": 0.354}
{"mutation": "QQGN", "experimental_readout": "one-hybrid fitness for binding NBS DNA", "measurement": "≤ 0.2"}
{"mutation": "GDVT", "experimental_readout": "one-hybrid fitness for binding NBS DNA", "measurement": "≤ 0.2"}
{"mutation": "EVQG", "experimental_readout": "one-hybrid fitness for binding NBS DNA", "measurement": "≤ 0.2"}

// for each variant below, give its one-hybrid fitness for binding NBS DNA
1. IGMS
2. RYQN

1. ≤ 0.2
2. ≤ 0.2

// for each variant below, give its one-hybrid fitness for binding NBS DNA
1. RYIR
2. QQLH
3. KHRR
4. AYRA
5. RKNP

1. 0.203
2. 0.22
3. 0.367
4. ≤ 0.2
5. ≤ 0.2

// for each variant below, give its one-hybrid fitness for binding NBS DNA
1. LRLN
2. RKNC
3. PSVW
4. VHVA
5. HTYV
6. ATEG

≤ 0.2
0.281
≤ 0.2
≤ 0.2
≤ 0.2
≤ 0.2

// for each variant below, give its one-hybrid fitness for binding NBS DNA
1. QQLP
2. QRFN
3. APSV
4. TYFR

≤ 0.2
0.353
≤ 0.2
≤ 0.2
